Assay: yeast display, Sf9 membrane polyspecificity reagent, FACS + sequencing; frameworks hold sequencing errors
measurement_type: polyreactivity (PSR sort gate)

{"columns": ["seq_string", "test_result"],
 "data": [
  ["QVQLVESGGGLVQAGGSLRLSCAASGRTFTYNAMGWYRQAPGKDRELVASIRRSGTITYSADSVKGRFTISRDNAKNTVYLQMNSLKPEDTAVYYCAARYPWYRYYSWGQGTQVTVSS", "high polyreactivity"],
  ["QVQLVESGGGLVQAGGSLRLSCAASGSILSYYAMGWYRQAPGKERELVAAISSTGSTNYADSVKGRFTISRDNAKNTLYLQMNSLKPEDTAVYYCATDGDPYADEGGYWGQGTQVTVSS", "high polyreactivity"],
  ["QVQLVESGGGLVQAGGSLRLSCAPSGIIFSPNAMGLYRQAPGKERELVASISSDSSTNYADSVKGRFSISRDNAKNTVYLQMNSLKPEYTAVYYCAADFVVGQAGDWTFWFDYWGQGTQVTVSS", "low polyreactivity"],
  ["QVQLVESGGGLVQAGGSLRLSCAASGRIFGYYAMGWYRQAPGKERELVATINSVGSTNYADSVKGRFTISRDNAKNTVYLQMNSLKPEDTAVYYCATDSAYTFFTYRLWRHGYWGQGTQVTVSS", "low polyreactivity"],
  ["QVQLVESGGGLVQAGGSLRLSCAASGRTFRRYVMGWYRQAPGKERELVAAIRWTGGSTYYADSVKGRFTISRDNAKNTVYLQMNSLKPEDTAVYYCAASSYIGYGYLGQGTQVTVSS", "high polyreactivity"],
  ["QVQLVESGGGLVQAGGSLRLSCAASGRIFPRYAMGWYRQAPGKERELVAAITTGGSTYADSVKGRFTISRDNAKNTVYLQMNSLKPEDTAVYYCAKRDSNKRDYWGQGTQVTVSS", "low polyreactivity"],
  ["QVQLVESGGGLVQAGGSLRLRCAASGIIFEYYAMGWYRQAPGKERELVAAITWNGGRTYYADSVKGRFTISRDNAKNTVYLQINSLKPEDTAVYYCAALTYYRDYWGLGTQVTVSS", "high polyreactivity"],
  ["QVQLVESGGGLVQAGGSLRLSCAASGRTFYAYAMGWYRQAPGKERELVAAINTSGGRTYYADSVKGRFTISRDNAKNTVYLQMNSLKPEDTAVYYCAADVYTFYPRRYDYWGQGTQVTVSS", "low polyreactivity"],
  ["QVQLVESGGGLVQAGGSLRLICAATGITFITYVMGWYSQAPGKERELVAAISLRGGRTSYADSVKGRFTISRDNAKNTVYLQMNSLKPEDTAVYYCAARGGAYQNAYEYDYWGPGTQVTVSS", "high polyreactivity"],
  ["QVQIVESGGGLVQAGGSLRLSCAASGLIFVVYAMGWNRQATGIERELVADISSVGRTSYADSVKGSFTISRDNAKNNVYLQMNSLKPEDTAVYYCNAYPVFNQYYCWRYDYLGQGTQVTVSS", "low polyreactivity"],
  ["QVQLVESGGGLVQAGGSLRLSCAASGSTFDSNAMGWYRQAPGKERELVAAIRFSGGSTNYADSVKGRFTISRDKAKNTVYLQINSLKPEDTAVYYCAARYPNLRSRWYYYWGQGPQVTVSS", "high polyreactivity"],
  ["QFQLVESGGGLVQAGGSLRLSCSASGSIFVSNAMGRSRQAPGKERELVAAISSSGDSTYYADSVKGRFTISRDNAKNTFYVQMNSLKPEDNAVYYCAAVGPWWFPEYDYWGQGTQVTVSS", "low polyreactivity"]
]}
